Quick reference: kon of the listed items.
# ASSAY TARGET: cynomolgus monkey heterodimeric single-chain CD3εγ extracellular domain (cynomolgus monkey, UniProt Q95LI5 22-117; Q95LI7 23-113)
# Sequence (Q95LI7 other isoform, or with tags, fused parts or gaps): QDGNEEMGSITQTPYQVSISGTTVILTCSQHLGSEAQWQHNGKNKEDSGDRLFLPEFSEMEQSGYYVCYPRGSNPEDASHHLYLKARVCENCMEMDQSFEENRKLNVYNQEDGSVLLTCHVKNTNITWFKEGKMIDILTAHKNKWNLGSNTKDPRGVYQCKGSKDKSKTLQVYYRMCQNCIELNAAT
# ASSAY REMARKS: SPR, rabbit IgG captured, cyno single-chain CD3εγ ECD injected
Number only, in M⁻¹ s⁻¹; omit the unit.

Example results:
binder="clone-02 (antibody, V domains shown, Recombinant rabbit IgG; also called Clone 2) VH: QSLEESGGRLVTPGTPLTLTCTVSGFPLSAYAMIWVRQAPGKGLEWIGMIIRSGTVYYANWAKGRFTISKTSTTVDLKITSPTTEDTATYFCARRHYNADGYPIGIGDLWGPGTLVTVSS VL: AQVLTQTPSSVSAVVGGTVTISCQSSESVYSNNRLSWFQQKPGQPPKLLIYSASTLASGVPSRFKGSGSGTQFTLTITDLECDDAATYFCQGEFSCSSVDCFSFGGGTEVVVKG" value_kind=kon measured=668000
binder="clone-04 (antibody, V domains shown, Recombinant rabbit IgG; also called Clone 4) VH: QSLEESGGRLVKPDETLTLTCTVSGFPLSSYAMGWFRQAPGKGLEWIGMILRSDNTYYASWAKGRFTISKTSTTVDLKITSPTTEDTATYFCARRHYNASGNPIAIGDLWGPGTLVTVSS VL: AQVLTQTPSSVSAAVGGTVTINCQSSQSVYNNNRLSWFQQKPGQPPKLLIYTTSSLASGVPSRFKGSGSGTEFTLTISDLECADAATYYCQGEFSCSRADCFNFGGGTEVVVKG" value_kind=kon measured=646000

Enquiry: I am curious: what kon value has been reported for clone-03 (antibody, V domains shown, Recombinant rabbit IgG; also called Clone 3) VH: QSLEESGGRLVTPGTPLTLTCTVSGFPLNRYAMLWVRQAPGKGLEWIGLITRADKKYYASWAKGRFTISKTSTTVDLEITGPTTEDTATYFCARRHYNTDGYPIAIGDLWGPGTLVTVSS VL: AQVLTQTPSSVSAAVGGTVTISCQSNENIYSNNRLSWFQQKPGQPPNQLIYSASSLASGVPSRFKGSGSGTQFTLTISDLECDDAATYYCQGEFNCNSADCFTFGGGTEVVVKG ?
Return: 350000
